- System: EBC-1 cells
- METHOD: 6-day in vitro cytotoxicity assay (nuclear counts)
- Format: cell-based, human
- ASSAY SETUP: 6-day treatment
RECORDED METRIC: IC50 (nM)
Give bare numbers, in nM.

Tell us which IC50 value is on record for COc1cc2cc(c1Cl)N(C)C(=O)CC(OC(=O)C(C)N(C)C(=O)CCSSC)C1(C)OC1C(C)C1CC(O)(NC(=O)O1)C(OC)C=CC=C(C)C2 (centres unmarked)
0.12

---

- System: A549 cells
- METHOD: 3-day in vitro cytotoxicity assay (nuclear counts)
- Format: cell-based, human
- ASSAY SETUP: 3-day treatment
RECORDED METRIC: pIC50
Numbers only, as −log10 of the molar value.

Respond only with pIC50 recorded for COc1cc2cc(c1Cl)N(C)C(=O)CC(OC(=O)C(C)N(C)C(=O)CCS)C1(C)OC1C(C)C1CC(O)(NC(=O)O1)C(OC)C=CC=C(C)C2 (stereo not shown) [DM1 (free drug)]
8.59
